# Particulars: rat, microsomes
Endpoint: CLH (µL/min/mg)

(I) COc1ccc2c(c1)C(=O)c1sc3ccc(F)cc3c1-2
(II) COc1cccc2c1-c1c(sc3ccccc13)C2=O
Field: lower CLH | Options: I / II When you have decided, please share the label of that item.
I

----------
# Particulars: rat, microsomes
Endpoint: CLH (µL/min/mg)

Can you share its CLH? I mean this molecule: "COc1ccc2c(c1)C(=O)c1sc3ccc(OC)cc3c1-2"
122

Can you share its CLH? I mean this molecule: "COc1ccc2c(c1)-c1c(sc3ccccc13)C2=O"
68.8

Can you share its CLH? I mean this molecule: "COc1ccc2c(c1)-c1c(sc3ccc(OC)cc13)C2=O"
92.4

Can you share its CLH? I mean this molecule: "COc1ccc2c(c1)C(=O)c1sc3ccccc3c1-2"
94.8

Origin of the recorded values: ChEMBL document CHEMBL6134768
